# studyTarget: AHR (Homo sapiens, UniProt P35869)
# Sequence (P35869 11-848): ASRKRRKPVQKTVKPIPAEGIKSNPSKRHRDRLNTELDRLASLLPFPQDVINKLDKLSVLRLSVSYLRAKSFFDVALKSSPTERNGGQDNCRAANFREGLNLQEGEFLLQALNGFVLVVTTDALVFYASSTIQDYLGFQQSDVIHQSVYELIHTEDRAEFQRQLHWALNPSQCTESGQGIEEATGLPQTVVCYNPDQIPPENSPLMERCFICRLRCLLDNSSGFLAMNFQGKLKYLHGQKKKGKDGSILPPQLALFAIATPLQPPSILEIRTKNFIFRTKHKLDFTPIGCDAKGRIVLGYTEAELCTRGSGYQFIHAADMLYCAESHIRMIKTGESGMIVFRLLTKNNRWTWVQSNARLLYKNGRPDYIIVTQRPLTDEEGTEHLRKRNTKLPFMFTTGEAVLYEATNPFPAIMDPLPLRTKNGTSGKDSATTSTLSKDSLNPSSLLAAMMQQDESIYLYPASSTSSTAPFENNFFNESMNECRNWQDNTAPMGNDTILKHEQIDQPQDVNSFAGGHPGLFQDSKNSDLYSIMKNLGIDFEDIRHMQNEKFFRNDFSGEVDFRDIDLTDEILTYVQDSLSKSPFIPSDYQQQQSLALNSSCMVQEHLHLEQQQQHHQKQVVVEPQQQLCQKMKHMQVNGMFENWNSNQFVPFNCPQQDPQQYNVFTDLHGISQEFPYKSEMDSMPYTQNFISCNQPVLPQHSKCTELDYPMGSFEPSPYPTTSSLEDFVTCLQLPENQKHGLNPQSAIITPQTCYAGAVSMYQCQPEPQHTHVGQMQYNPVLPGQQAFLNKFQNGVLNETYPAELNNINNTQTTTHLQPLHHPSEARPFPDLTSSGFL
# protocolText: In vitro assay 1: antagonism in human cell line (transactivation assay, U87 cells prestimulated with kynurenic acid, DRE firefly luciferase reporter)
# Type: cell-based
# Parameters: host or cells: U87 glioblastoma cells, stably transfected with DRE firefly luciferase and renilla reporter constructs
# measurementContext: 150 uM kynurenic acid, 20 hours, read-out: Assay 1: AHR-luc Hum Antagonism IC50
pIC50: −log10 of the molar value.
Decision: pIC50 compared against 8; not below it gives True, below it gives False.

Reference set (5 entries):
Cn1cc(-n2nc(-c3ccc(OC(F)(F)F)cc3)cc(C(=O)N[C@H]3CCCC[C@H]3O)c2=O)cn1 [Example 46] = True
Cn1cc(-n2nc(-c3ccc(OC(F)(F)F)cc3)cc(C(=O)N[C@@H]3COC[C@H]3O)c2=O)cn1 (single isomer, unassigned; enantiomer 2) [Example 65] = False
O=C(N[C@H](CO)C(F)(F)F)c1cc(-c2ccc(C(F)(F)F)cc2)nn(-c2cccnc2)c1=O [Example 112] = True
O=C(NC(CO)C(F)(F)F)c1cc(-c2ccc(OC(F)(F)F)cc2)nn(-c2cccnc2)c1=O (stereo not drawn) [Example 149] = False
C[C@H](CO)NC(=O)c1cc(-c2ccc(C(F)(F)F)cc2)nn(-c2cccnc2)c1=O [Example 118] = False

Query: Decide: is the reported value of pIC50 for O=C(N[C@H]1COC[C@H]1O)c1cc(-c2ccc(OC(F)(F)F)cc2)nn(-c2cccnc2)c1=O (relative stereo) [Example 157] equal to or greater than 8?
Response: False

Query: Can Cc1ccc(-c2cc(C(=O)N[C@H](C)CO)c(=O)n(-c3cnn(C)c3)n2)cc1 [Example 9] be said to have pIC50 at or above 8?
Response: False

Query: Decide: pIC50 of CC(C)[C@@H](CO)NC(=O)c1cc(-c2ccc(C(F)(F)F)nc2)nn(-c2cncc(F)c2)c1=O [Example 337] >= 8?
Response: False

---

# pIC50 annotations
# studyTarget: AHR (Homo sapiens, UniProt P35869)
# protocolText: In vitro assay 2: agonism in human cell line (transactivation assay, U87 cells, DRE firefly luciferase reporter)
# Type: cell-based
# Set-up: host or cells: U87 glioblastoma cells, stably transfected with DRE firefly luciferase and renilla reporter constructs
# measurementContext: no kynurenic acid, 20 hours, read-out: Assay 2: AHR-luc Hum Agonism IC50
pIC50: −log10 of the molar value.

Consider the reported pIC50 for these compounds:
O=C(NC[C@@H](O)CO)c1cc(-c2ccc(Cl)cc2)nn(-c2cccnc2)c1=O [Example 73] = < 4.70
O=C(N[C@@H]1CC[C@@H]1O)c1cc(-c2ccc(Cl)cc2)nn(-c2cccnc2)c1=O (relative stereo) [Example 258] = < 4.70
Cn1cc(-n2nc(-c3ccc(Cl)cc3)cc(C(=O)NCC(O)C(F)F)c2=O)cn1 (stereo not shown) [Example 21] = < 4.70
C[C@@H](CO)NC(=O)c1cc(-c2ccc(Cl)cc2)nn(-c2cnoc2)c1=O [Example 253] = < 4.70
Cc1ccc(-c2cc(C(=O)NCC(O)C(F)F)c(=O)n(-c3cnn(C)c3)n2)cc1 (stereo not shown) [Example 13] = < 4.70

Query: Any idea what pIC50 came out for O=C(NC[C@H](O)C(F)(F)F)c1cc(-c2ccc(Cl)cc2)nn(-c2cnn(C3CCC3)c2)c1=O [Example 40] on AHR (Homo sapiens, UniProt P35869)?
Response: < 4.70

Query: Quick check: pIC50 on AHR (Homo sapiens, UniProt P35869), item COC[C@H](CO)NC(=O)c1cc(-c2ccc(Cl)cc2)nn(-c2cnn(C)c2)c1=O [Example 29] ?
Response: < 4.70

Query: Entry O=C(NC[C@H](O)C(F)(F)F)c1cc(-c2ccc(C(F)(F)F)cc2)nn(-c2cccnc2)c1=O [Example 117] , system AHR (Homo sapiens, UniProt P35869): what pIC50 was measured?
Response: < 4.70

Query: Param readout= pIC50; system= AHR (Homo sapiens, UniProt P35869); entry= Cn1cc(-n2nc(-c3ccc(OC(F)(F)F)cc3)cc(C(=O)N[C@@H]3COC[C@@H]3O)c2=O)cn1 (single isomer, unassigned; enantiomer 2) [Example 57] ; returns value.
Response: < 4.70

Query: Tell me reported pIC50 for O=C(N[C@H]1COCC[C@H]1O)c1cc(-c2ccc(OC(F)(F)F)cc2)nn(-c2cccnc2)c1=O [Example 176] , tested with AHR (Homo sapiens, UniProt P35869).
Response: < 4.70

Query: GET /values?readout=pIC50&system=AHR (Homo sapiens, UniProt P35869)&item= Cn1cc(-n2nc(-c3ccc(OC(F)(F)F)cc3)cc(C(=O)N[C@@H]3COC[C@H]3O)c2=O)cn1 (single isomer, unassigned; enantiomer 1) [Example 64]
Response: < 4.70

Query: Provide value of pIC50 for this record tested with AHR (Homo sapiens, UniProt P35869): O=C(NC[C@H](O)C(F)(F)F)c1cc(-c2ccc(C(F)(F)F)cc2)nn(-c2cnn(C(F)F)c2)c1=O [Example 223]
Response: < 4.70

Query: Which pIC50 is reported with AHR (Homo sapiens, UniProt P35869) for this entry: O=C(N[C@H](CO)C(F)(F)F)c1cc(-c2ccc(C(F)(F)F)cc2)nn(-c2cnn(C(F)F)c2)c1=O [Example 214] ?
Response: < 4.70

Query: GET /values?readout=pIC50&system=AHR (Homo sapiens, UniProt P35869)&item= CC(C)(O)CNC(=O)c1cc(-c2ccc(C(F)F)cc2)nn(-c2cccnc2)c1=O [Example 322]
Response: < 4.70

Query: Lab request: please report pIC50 under test system AHR (Homo sapiens, UniProt P35869) for O=C(N[C@H]1CCCC(F)(F)[C@@H]1O)c1cc(-c2ccc(OC(F)(F)F)cc2)nn(-c2cccnc2)c1=O (single isomer, unassigned; enantiomer 2) [Example 142]
Response: < 4.70

Query: Lab note: need pIC50 for CC(C)(O)C(NC(=O)c1cc(-c2ccc(C(F)(F)F)cc2)nn(-c2cccnc2)c1=O)C(F)(F)F (single isomer, unassigned; (+)) [Example 197] on AHR (Homo sapiens, UniProt P35869), anyone have it?
Response: < 4.70

Query: Query the reported pIC50 for AHR (Homo sapiens, UniProt P35869); item: C[C@H](NC(=O)c1cc(-c2ccc(C(F)(F)F)nc2)nn(-c2cncc(F)c2)c1=O)C(C)(C)O [Example 340]
Response: < 4.70

Query: Tell me reported pIC50 for O=C(N[C@H]1CCCC[C@H]1O)c1cc(-c2ccc(Cl)cc2)nn(-c2ccnnc2)c1=O [Example 164] , tested with AHR (Homo sapiens, UniProt P35869).
Response: < 4.70

Query: Form entry - test system: AHR (Homo sapiens, UniProt P35869); read-out: pIC50; compound: COC[C@@H](CO)NC(=O)c1cc(-c2ccc(Cl)cc2)nn(-c2cnn(C)c2)c1=O [Example 30]
Response: < 4.70

Query: Can you look up pIC50 on AHR (Homo sapiens, UniProt P35869) for Cn1cc(-n2nc(-c3ccc(C(F)F)cc3)cc(C(=O)N[C@@H]3COC[C@@H]3O)c2=O)cn1 (single isomer, unassigned) [Example 315] ?
Response: < 4.70

Query: Short answer please: pIC50, AHR (Homo sapiens, UniProt P35869), entry O=C(N[C@H](CO)C(F)(F)F)c1cc(-c2ccc(Cl)cc2)nn(-c2cccnc2)c1=O [Example 96]
Response: < 4.70

Query: Record lookup: for AHR (Homo sapiens, UniProt P35869), what pIC50 belongs to Cn1cc(-n2nc(-c3ccc(C(F)(F)F)cc3)cc(C(=O)NCC(C)(C)O)c2=O)cn1 [Example 67] ?
Response: < 4.70

Query: GET /values?readout=pIC50&system=AHR (Homo sapiens, UniProt P35869)&item= O=C(N[C@H]1COC[C@@H]1O)c1cc(-c2ccc(OC(F)(F)F)cc2)nn(-c2cccnc2)c1=O (single isomer, unassigned; enantiomer 2) [Example 162]
Response: < 4.70

Query: # query: pIC50 | item Cc1ccc(-c2cc(C(=O)NC(CO)C(C)C)c(=O)n(-c3cnn(C)c3)n2)cc1 (single isomer, unassigned) [Example 3] | system: AHR (Homo sapiens, UniProt P35869)
Response: < 4.70

Query: Given the entry O=C(N[C@@H]1COC[C@@H]1O)c1cc(-c2ccc(C(F)F)cc2)nn(-c2cccnc2)c1=O (relative stereo) [Example 323] , what pIC50 was observed with AHR (Homo sapiens, UniProt P35869)?
Response: < 4.70

Query: Recorded pIC50 for O=C(NC[C@@H](O)CO)c1cc(-c2ccc(C(F)(F)F)cc2)nn(-c2cccnc2)c1=O [Example 113] with AHR (Homo sapiens, UniProt P35869), please?
Response: < 4.70

Query: Test system AHR (Homo sapiens, UniProt P35869); read-out pIC50; what value for Cn1cc(-n2nc(-c3ccc(C(F)(F)F)cc3)cc(C(=O)N[C@@H]3CCC[C@H]3O)c2=O)cn1 [Example 248] ?
Response: < 4.70

Query: What pIC50 appears in the records for this compound with AHR (Homo sapiens, UniProt P35869)? Cn1cc(-n2nc(-c3ccc(Cl)cc3)cc(C(=O)N[C@@H]3CCC[C@]3(C)O)c2=O)cn1 (relative stereo) [Example 317]
Response: < 4.70
